Reference source: PubChem BioAssay AID1347417

- measurement.notes: qHTS Primary assay for Inhibitors of Plasmodium falciparum Dd2 growth in vitro; also: nearly all actives have a fitted effect of over 65% in size
- test.parameters: P. falciparum Dd2 growth, SYBR Green, 72 h; series mostly up to 28.9 µM
Among all 120,000 compounds or so, about 5,300 (4.4%) were called active. About 22% were inconclusive and are not listed. Calls follow the shape of the dose curve; as a rule, active = well fitted inhibition curve with a large enough effect; inconclusive = small, poorly fitted or top-dose-only effect; inactive = no such curve, though single readings can be large or run the other way. The sample holds actives, similar compounds and a random draw of the others, so the mix is not that of the screen.
Form entry, call: pick from active, inactive

Examples from the recorded data:
>>> label("Cc1nc(-c2ccc(Cl)cc2)n(Cc2cc(F)cc(F)c2)c(=O)c1CCO")
"inactive"
>>> label("O=C(C1CCCC1)N1CCCC(c2noc(COc3ccccc3)n2)C1 (stereo not given)")
"active"
>>> label("C[C@@H](NC(=O)C[C@@H]1[C@H](O)CC[C@@H]2[C@](C)(CO)[C@H](O)CC[C@]21C)c1ccccc1")
"inactive"
>>> label("CC(C)(Oc1nn(CCOc2ccccc2)c2ccccc12)C(=O)NCCCn1ccnc1")
"inactive"
>>> label("CC(=O)N1CC2(CCN(Cc3cccnc3)C2)Cc2ccccc21 (stereo not given)")
"inactive"
>>> label("CCNS(=O)(=O)c1cc(-c2nnc(Nc3cccc(C(F)(F)F)c3)c3ccccc23)ccc1C")
"inactive"
>>> label("Cc1ccc(NC(=O)N2CCc3[nH]c4ccc(F)cc4c3C2)cc1C")
"inactive"
>>> label("Cc1cccc(NC(c2cccc(F)c2)c2ccc3ccc(C)nc3c2O)n1 (stereo not given)")
"active"
>>> label("COC(=O)c1c(NC(=O)c2ccccc2)c2cc(NC(C)C)cnc2n1CC1CCCO1 (stereo not given)")
"inactive"

Moving on to the next compound.
Inquiry: Hello, I am checking results. What call was entered for Cn1nnnc1SCCCNCc1ccc(Cl)cc1 ?
Reply text: inactive
